B1: PhoQ; a variant is named by its letters at X, in order, P23837 (parent)
chain: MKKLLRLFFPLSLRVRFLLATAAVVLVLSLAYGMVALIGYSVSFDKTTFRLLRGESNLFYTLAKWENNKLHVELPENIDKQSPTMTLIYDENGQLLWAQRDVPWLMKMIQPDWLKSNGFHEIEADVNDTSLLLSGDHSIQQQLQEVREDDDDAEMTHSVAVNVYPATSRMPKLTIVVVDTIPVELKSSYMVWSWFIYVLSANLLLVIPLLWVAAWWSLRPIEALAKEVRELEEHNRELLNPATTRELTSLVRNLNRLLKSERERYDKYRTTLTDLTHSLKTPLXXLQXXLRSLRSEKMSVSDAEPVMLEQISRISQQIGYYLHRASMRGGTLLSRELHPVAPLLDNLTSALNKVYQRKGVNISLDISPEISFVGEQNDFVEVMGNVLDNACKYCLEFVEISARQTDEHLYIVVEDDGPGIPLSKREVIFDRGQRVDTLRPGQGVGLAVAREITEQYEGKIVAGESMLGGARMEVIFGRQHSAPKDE

Variants of: B1
Experiment: enrichment ratio after two sorts for PhoP signalling (ratio (wild type AVST 3.29)); higher = more functional
Settings: with PhoP (E. coli)
Whole data set: some 140,000 sequences, median “enrichment ratio after two sorts for PhoP signalling” near 0, cut for the highest 2% near 11. For the sample, the highest values were picked, then their nearest neighbours and some sequences at random.
Listing of entries alongside the reported enrichment ratio.
Measurement Name: enrichment ratio

[[record]]
variant_spec = "SNCA"
measurement_name = "enrichment ratio"
comparative_sign = "="
numeric_readout = 16.8

[[record]]
variant_spec = "KSWS"
measurement_name = "enrichment ratio"
comparative_sign = "≤"
numeric_readout = 0.25

[[record]]
variant_spec = "TEWG"
measurement_name = "enrichment ratio"
comparative_sign = "="
numeric_readout = 3.3

[[record]]
variant_spec = "YAMF"
measurement_name = "enrichment ratio"
comparative_sign = "≤"
numeric_readout = 0.25

[[record]]
variant_spec = "NIYL"
measurement_name = "enrichment ratio"
comparative_sign = "≤"
numeric_readout = 0.25

[[record]]
variant_spec = "SQCI"
measurement_name = "enrichment ratio"
comparative_sign = "="
numeric_readout = 15.6

[[record]]
variant_spec = "SQCK"
measurement_name = "enrichment ratio"
comparative_sign = "="
numeric_readout = 9.83

[[record]]
variant_spec = "TEWS"
measurement_name = "enrichment ratio"
comparative_sign = "="
numeric_readout = 28.5

[[record]]
variant_spec = "TEWR"
measurement_name = "enrichment ratio"
comparative_sign = "="
numeric_readout = 6.71

[[record]]
variant_spec = "SNDH"
measurement_name = "enrichment ratio"
comparative_sign = "≤"
numeric_readout = 0.25

[[record]]
variant_spec = "SNHI"
measurement_name = "enrichment ratio"
comparative_sign = "≤"
numeric_readout = 0.25

[[record]]
variant_spec = "SQCA"
measurement_name = "enrichment ratio"
comparative_sign = "="
numeric_readout = 8.55

[[record]]
variant_spec = "TEGM"
measurement_name = "enrichment ratio"
comparative_sign = "="
numeric_readout = 4.56

[[record]]
variant_spec = "TAAF"
measurement_name = "enrichment ratio"
comparative_sign = "="
numeric_readout = 18.4

[[record]]
variant_spec = "IAMF"
measurement_name = "enrichment ratio"
comparative_sign = "≤"
numeric_readout = 0.25

[[record]]
variant_spec = "TAWV"
measurement_name = "enrichment ratio"
comparative_sign = "="
numeric_readout = 12.8

[[record]]
variant_spec = "TEWM"
measurement_name = "enrichment ratio"
comparative_sign = "="
numeric_readout = 73.1

[[record]]
variant_spec = "ETSM"
measurement_name = "enrichment ratio"
comparative_sign = "≤"
numeric_readout = 0.25

[[record]]
variant_spec = "TAWI"
measurement_name = "enrichment ratio"
comparative_sign = "="
numeric_readout = 10.7

[[record]]
variant_spec = "YGHF"
measurement_name = "enrichment ratio"
comparative_sign = "≤"
numeric_readout = 0.25

[[record]]
variant_spec = "TEWN"
measurement_name = "enrichment ratio"
comparative_sign = "="
numeric_readout = 9.81

[[record]]
variant_spec = "TAVK"
measurement_name = "enrichment ratio"
comparative_sign = "≤"
numeric_readout = 0.25

